Value source: patent US12391685B2

Target: SpCas9 (Streptococcus pyogenes serotype M1, UniProt Q99ZW2)
Sequence (Q99ZW2 whole entry): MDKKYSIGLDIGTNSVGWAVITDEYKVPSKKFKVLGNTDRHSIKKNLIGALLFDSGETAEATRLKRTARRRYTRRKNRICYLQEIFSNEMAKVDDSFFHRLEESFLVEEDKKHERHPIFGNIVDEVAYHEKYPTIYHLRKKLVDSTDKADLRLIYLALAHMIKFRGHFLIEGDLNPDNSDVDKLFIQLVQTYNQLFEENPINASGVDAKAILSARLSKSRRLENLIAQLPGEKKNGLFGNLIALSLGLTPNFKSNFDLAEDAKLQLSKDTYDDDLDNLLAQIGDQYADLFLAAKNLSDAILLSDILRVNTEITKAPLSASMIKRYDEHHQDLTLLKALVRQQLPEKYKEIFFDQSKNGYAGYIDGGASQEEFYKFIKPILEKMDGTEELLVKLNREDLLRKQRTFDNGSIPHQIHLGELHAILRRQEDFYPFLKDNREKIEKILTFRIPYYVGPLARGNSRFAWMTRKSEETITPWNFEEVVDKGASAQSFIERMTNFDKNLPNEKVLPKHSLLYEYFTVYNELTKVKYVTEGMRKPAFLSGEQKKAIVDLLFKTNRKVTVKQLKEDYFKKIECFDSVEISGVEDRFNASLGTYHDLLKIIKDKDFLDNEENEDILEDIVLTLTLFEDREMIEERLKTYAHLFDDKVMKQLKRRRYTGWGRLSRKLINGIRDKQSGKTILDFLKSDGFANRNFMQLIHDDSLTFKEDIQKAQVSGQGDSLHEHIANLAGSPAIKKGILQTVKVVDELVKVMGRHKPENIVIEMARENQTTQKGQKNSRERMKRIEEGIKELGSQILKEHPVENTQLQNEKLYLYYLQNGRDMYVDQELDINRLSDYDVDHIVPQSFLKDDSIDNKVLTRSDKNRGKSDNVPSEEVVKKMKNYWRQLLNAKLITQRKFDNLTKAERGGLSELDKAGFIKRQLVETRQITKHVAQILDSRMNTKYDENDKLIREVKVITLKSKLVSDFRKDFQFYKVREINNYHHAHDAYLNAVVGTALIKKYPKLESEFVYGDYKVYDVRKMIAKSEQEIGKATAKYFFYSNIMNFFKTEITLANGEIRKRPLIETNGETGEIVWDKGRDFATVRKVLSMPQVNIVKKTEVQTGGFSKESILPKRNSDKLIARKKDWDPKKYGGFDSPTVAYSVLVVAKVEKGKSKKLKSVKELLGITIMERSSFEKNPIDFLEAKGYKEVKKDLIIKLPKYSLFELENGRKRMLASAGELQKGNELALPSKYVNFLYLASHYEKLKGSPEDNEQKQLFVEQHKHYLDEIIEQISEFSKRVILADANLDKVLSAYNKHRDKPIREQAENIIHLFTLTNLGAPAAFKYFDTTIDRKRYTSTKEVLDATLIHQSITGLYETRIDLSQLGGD
Assay: eGFP-disruption assay in U2OS.eGFP.PEST cells
Format: cell-based, S. pyogenes
Design: host or cells: U2OS.eGFP.PEST
Settings: screen of structural analogs of BRD7087; 15 μM compound, 24 h, U2OS.eGFP.PEST cells; read-out: Inhibition activity Rep 2
Readings of inhibition at 15 µM for the listed compounds
Entry rule: numbers only, all in %.

Some compounds with recorded inhibition at 15 µM:
CN1c2ccc(C#Cc3cccnc3)cc2[C@H]2[C@H](CCN2C(=O)Nc2cc(F)ccc2F)[C@@H]1CO ... 68.7
COc1cccc(-c2ccc3c(c2)[C@H]2[C@H](CCN2C(=O)Cc2ccncc2)[C@H](CO)N3C)c1 ... 74.9
Cc1ccc(S(=O)(=O)N2CC[C@@H]3[C@H](CO)Nc4ccc(-c5ccccc5F)cc4[C@@H]32)cc1 ... 67.4

Shifting focus to the compound that follows.
INPUT: # query: inhibition at 15 µM of entry "CN1c2ccc(C#Cc3cccnc3)cc2[C@@H]2[C@@H](CCN2C(=O)C2CCCCC2)[C@H]1CO"
OUTPUT: 59.4

* * *

Target: SpCas9 (Streptococcus pyogenes serotype M1, UniProt Q99ZW2)
Experiment: eGFP-disruption assay in U2OS.eGFP.PEST cells
Assay type: cell-based, S. pyogenes
Parameters: host or cells: U2OS.eGFP.PEST
Details: screen of structural analogs of BRD7087; 15 μM compound, 24 h, U2OS.eGFP.PEST cells
Procedure: SpCas9 nuclease activity in eGFP-disruption assay. […] Images were analyzed using MetaXpress software and data were plotted using GraphPad Prism 6. The Z′-value was calculated using the equation (1), where σ1 and σ2 are the standard deviations of DMSO control and SpCas9:gRNA control respectively. μ1 and μ2 are the mean % GFP^− cell population for DMSO control and SpCas9:gRNA control, respectively.
Classes by Inhibition activity Rep 1: L (below 50), M (50 to below 60), H (60 or more)

Please review the entries below; each comes with its answer.
O=C(c1cccc(F)c1)N1CC[C@@H]2[C@H](CO)Nc3ccc(-c4ccccc4)cc3[C@@H]21 ... L
C/C=C/c1ccc2c(c1)[C@H]1[C@H](CCN1C(=O)c1ccc(F)cc1)[C@H](CO)N2 ... H
CCCC#Cc1ccc2c(c1)[C@@H]1[C@@H](CCN1S(=O)(=O)c1ccccc1OC)[C@@H](CO)N2 ... H
COc1ccc(C#Cc2ccc3c(c2)[C@@H]2[C@@H](CCN2Cc2nccs2)[C@@H](CO)N3)cc1 ... L
COc1ccc(-c2ccc3c(c2)[C@H]2[C@H](CCN2C(=O)Cc2ccncc2)[C@H](CO)N3)cc1 ... M

INPUT: Category of "COc1ccccc1NC(=O)N1CC[C@@H]2[C@H]1c1cc(C#Cc3cccc(F)c3)ccc1N(C)[C@@H]2CO" :
OUTPUT: L

INPUT: Category lookup for the compound "O=S(=O)(c1ccc(F)cc1)N1CC[C@@H]2[C@H](CO)Nc3ccc(C#CC4CC4)cc3[C@@H]21"
OUTPUT: L

INPUT: Note: place this compound into its band. Item: "COc1ccc(S(=O)(=O)N2CC[C@@H]3[C@@H](CO)N(C)c4ccc(-c5ccc(F)cc5)cc4[C@@H]32)cc1"
OUTPUT: H

* * *

Target: UniProt:Q99ZW2
Experiment: eGFP-disruption assay in U2OS.eGFP.PEST cells
Type: cell-based, S. pyogenes
Set-up: host or cells: U2OS.eGFP.PEST
Conditions: eGFP-disruption assay; read-out: apparent EC50
ASSAY METRIC: EC50 (µM)
Record the value in µM, omitting the unit from your answer.

COc1cccc(-c2ccc3c(c2)[C@H]2[C@H](CCN2C(=O)Cc2ccncc2)[C@H](CO)N3C)c1 ... 11

INPUT: Query: EC50; subject: "Cc1ccc(S(=O)(=O)N2CC[C@@H]3[C@H](CO)Nc4ccc(-c5ccccc5F)cc4[C@@H]32)cc1"
OUTPUT: 11
